experiment: In vivo pharmacokinetics in rats; set-up: species or system Sprague Dawley rats; conditions: male, Sprague-Dawley, plasma; rat, 3.0 mg/kg PO, cassette dosing; read-out: AUC0-inf
Outcome label depends on AUC(0-inf) relative to 1 µM·h: at/above gives Y, below gives N.

AUC(0-inf) >= 1 µM·h for "Cc1c(NC(=O)c2nc3c(n2C)CCN(CCC24CCC(C(=O)O)(CC2)C4)C3)cccc1-c1cccc(Nc2nc(C(F)F)nc3cc(CN4CC[C@@](C)(O)C4)cnc23)c1C" ?
Y

In plain terms: is recorded AUC(0-inf) at least 1 µM·h for "CN1CCc2c(nc(C(=O)Nc3cccc(-c4cccc(NC(=O)c5nc6c(n5C)CCN(CC57CCC(C(=O)O)(CC5)C7)C6)c4Cl)c3Cl)n2C)C1" ?
Y

Check if AUC(0-inf) >= 1 µM·h (inclusive). Item: "Cc1c(Nc2nc(C(F)F)nc3cc(CN4CC[C@@](C)(O)C4)cnc23)cccc1-c1cccc(NC(=O)c2nc3c(n2C)CCN(CCC24CCC(C(=O)O)(CC2)C4)C3)c1Cl"
Y

Threshold query (AUC(0-inf) >= 1 µM·h) on Cc1c(-c2nc3cc(CN4CC[C@@H](O)C4)cc(C#N)c3o2)cccc1-c1cccc(NC(=O)c2nc3c(n2C)CCN(CCC2CCC(C(=O)O)CC2)C3)c1Cl (some centres unmarked)
N

Could you verify whether the entry "Cc1c(NC(=O)c2nc3c(n2C)CCN(CCC24CCC(C(=O)O)(CC2)C4)C3)cccc1-c1cccc(Nc2nc(C(F)F)nc3cc(CN4CC[C@@H](O)C4)cnc23)c1C" shows AUC(0-inf) of no less than 1 µM·h?
Y

Would you say "Cc1c(NC(=O)c2nc3c(n2C)CCN(CC24CCC(C(=O)O)(CC2)C4)C3)cccc1-c1cccc(NC(=O)c2nc3c(n2C)CCN(C)C3)c1Cl" shows AUC(0-inf) at minimum 1 µM·h?
Y

In plain terms: is recorded AUC(0-inf) at least 1 µM·h for "Cc1c(Nc2nc(C(F)F)nc3cc(CN4CC[C@@H](O)C4)cnc23)cccc1-c1cccc(NC(=O)c2nc3c(n2C)CCN(CCC24CCC(C(=O)O)(CC2)C4)C3)c1Cl" ?
Y

Given "Cc1c(-c2nc3cc(CN4CC[C@@H](O)C4)cc(C#N)c3o2)cccc1-c1cccc(NC(=O)c2nc3c(n2C)CCN(CC24CCC(C(=O)O)(CC2)C4)C3)c1Cl" , state whether its AUC(0-inf) is at least 1 µM·h.
N

====

Kindly supply the reported IC50 values for the records listed here.
tested on: U2OS/PD-L1 cells and Jurkat-PD-1-SHP cells; experiment: Src homology region 2 domain-containing phosphatase (SHP) assay; format: cell-based; details: Homo sapiens, U2OS; PathHunter chemiluminescence, 2 hours
Output spec: scalar in nM, unitless text.

// fetch U2OS/PD-L1 cells and Jurkat-PD-1-SHP cells IC50 for Cn1c(C(=O)Nc2cccc(-c3cccc(NC(=O)c4nc5c(n4C)CCN(C4CCC(O)CC4)C5)c3Cl)c2Cl)nc2c1CCN(CC13CCC(C(=O)O)(CC1)C3)C2 (stereo not drawn) [Example 183, reference compound]
5.6

Under U2OS/PD-L1 cells and Jurkat-PD-1-SHP cells: IC50 value of C[C@H](O)CN1CCc2c(nc(C(=O)Nc3cccc(-c4cccc(NC(=O)c5nc6c(n5C)CCN(CC57CCC(C(=O)O)(CC5)C7)C6)c4Cl)c3Cl)n2C)C1 [Example 181, reference compound] ?
6.1

Form field: IC50 recorded for "Cc1c(NC(=O)c2nc3c(n2C)CCN(CCC24CCC(C(=O)O)(CC2)C4)C3)cccc1-c1cccc(Nc2nc(C(F)F)nc3cc(CN4CC[C@@](C)(O)C4)cnc23)c1C" with U2OS/PD-L1 cells and Jurkat-PD-1-SHP cells (enter value)
2.2

Missing value: IC50, U2OS/PD-L1 cells and Jurkat-PD-1-SHP cells, entry Cc1c(-c2nc3cc(CN4CC[C@@H](O)C4)cc(C#N)c3o2)cccc1-c1cccc(NC(=O)c2nc3c(n2C)CCN(CCC2CCC(C(=O)O)CC2)C3)c1Cl (stereo partly drawn) . Fill in?
4.9

Lookup: IC50 / U2OS/PD-L1 cells and Jurkat-PD-1-SHP cells / "Cc1c(NC(=O)c2nc3c(n2C)CCN(CCC24CCC(C(=O)O)(CC2)C4)C3)cccc1-c1cccc(Nc2nc(C(F)F)nc3cc(CN4CC[C@](C)(O)C4)cnc23)c1C"
2.4

Please provide the recorded IC50 for "Cc1c(Nc2nc(C(F)F)nc3cc(CN4CC[C@@H](O)C4)cnc23)cccc1-c1cccc(NC(=O)c2nc3c(n2C)CCN(CCC24CCC(C(=O)O)(CC2)C4)C3)c1Cl" , tested on U2OS/PD-L1 cells and Jurkat-PD-1-SHP cells.
3
